The values you see were collected from patent US20230203146A1.

target: FLAG-tagged recombinant human Ang1 (human) (UniProt Q15389); assay: ratio of IC50s in hAng1/hTie2 and hAng2/hTie2 competition ELISA
Sequence (Q15389 20-498 limits assumed): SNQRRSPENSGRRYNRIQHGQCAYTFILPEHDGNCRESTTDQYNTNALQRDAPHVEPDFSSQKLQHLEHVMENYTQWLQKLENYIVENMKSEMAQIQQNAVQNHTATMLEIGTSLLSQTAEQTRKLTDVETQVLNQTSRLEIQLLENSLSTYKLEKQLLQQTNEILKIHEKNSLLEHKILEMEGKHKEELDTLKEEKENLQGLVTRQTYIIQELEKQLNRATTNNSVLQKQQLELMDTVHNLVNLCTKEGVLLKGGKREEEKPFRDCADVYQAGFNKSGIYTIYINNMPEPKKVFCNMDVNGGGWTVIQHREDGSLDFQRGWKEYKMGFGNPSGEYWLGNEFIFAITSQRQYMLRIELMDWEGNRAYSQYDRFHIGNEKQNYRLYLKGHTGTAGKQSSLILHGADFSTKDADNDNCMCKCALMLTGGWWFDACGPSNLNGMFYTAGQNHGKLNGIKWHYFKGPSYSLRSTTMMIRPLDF
MEASURED ATTRIBUTE: hAng1/hAng2 IC50 ratio

Worked examples follow.
• VHH 00908 (VHH, not shown: small tags and cut ends) VHH: EVQLVESGGGLVQPGGSLRLSCAASGITLDDYAIGWFRQAPGKEREGVSSIRDNGGSTYYADSVKGRFTISSDNSKNTVYLQMNSLRPEDTAVYYCAAVPAGRLRYGEQWYPIYEYDAWGQGTLVTVSS = > 192000
• VHH 00935 (VHH, not shown: small tags and cut ends) VHH: EVQLVESGGGLVQPGGSLRLSCAASGITLDDYAIGWFRQAPGKEREGVSAIRSSGGSTYYADSVKGRFTISSDNSKNTVYLQMNSLRPEDTAVYYCAAVPAGRLRYGEQWYPIYEYDAWGQGTLVTVSS = > 146000

Please give hAng1/hAng2 IC50 ratio, item by item, for the list that follows.
1. VHH 00932 (VHH, not shown: small tags and cut ends) VHH: EVQLVESGGGLVQPGGSLRLSCAVSGITLDDYAIGWFRQAPGKEREGVSSIRDNGGSTYYADSVKGRFTISSDNSKNTVYLQMNSLRPEDTAVYYCAAVPAGRLRYGEQWYPIYEYDAWGQGTLVTVSS
2. VHH 00933 (VHH, not shown: small tags and cut ends) VHH: EVQLVESGGGLVQPGGSLRLSCAASGITLDDYAIGWFRQAPGKEREGVSAIRDNGGSTYYADSVKGRFTISSDNSKNTVYLQMNSLRPEDTAVYYCAAVPAGRLRYGEQWYPIYEYDAWGQGTLVTVSS
3. VHH 00937 (VHH, not shown: small tags and cut ends) VHH: EVQLVESGGGLVQPGGSLRLSCAVSGITLDDYAIGWFRQAPGKEREGVSAIRESGGSTYYADSVKGRFTISSDNSKNTVYLQMNSLRPEDTAVYYCAAVPAGRLRYGEQWYPIYEYDAWGQGTLVTVSS
4. VHH 00934 (VHH, not shown: small tags and cut ends) VHH: EVQLVESGGGLVQPGGSLRLSCAASGITLDDYAIGWFRQAPGKEREGVSAIRESGGSTYYADSVKGRFTISSDNSKNTVYLQMNSLRPEDTAVYYCAAVPAGRLRYGEQWYPIYEYDAWGQGTLVTVSS
5. VHH 00936 (VHH, not shown: small tags and cut ends) VHH: EVQLVESGGGLVQPGGSLRLSCAVSGITLDDYAIGWFRQAPGKEREGVSAIRDNGGSTYYADSVKGRFTISSDNSKNTVYLQMNSLRPEDTAVYYCAAVPAGRLRYGEQWYPIYEYDAWGQGTLVTVSS
6. VHH 00938 (VHH, not shown: small tags and cut ends) VHH: EVQLVESGGGLVQPGGSLRLSCAVSGITLDDYAIGWFRQAPGKEREGVSAIRSSGGSTYYADSVKGRFTISSDNSKNTVYLQMNSLRPEDTAVYYCAAVPAGRLRYGEQWYPIYEYDAWGQGTLVTVSS
7. VHH 37F02 (VHH, not shown: small tags and cut ends) VHH: EVQLVESGGGLVQPGGSLRLSCAASGFALDYYAIGWFRQAPGKEREGVSCISSSDGITYYVDSVKGRFTISRDNAKNTVYLQMNSLKPEDTAVYYCATDSGGYIDYDCMGLGYDYWGQGTQVTVSS

> 206000
> 180000
> 186000
> 157000
> 224000
> 201000
> 130000

Please report the recorded hAng1/hAng2 IC50 ratio for VHH 00956 (VHH, not shown: small tags and cut ends) VHH: EVQLVESGGGLVQPGGSLRLSCAASGFTLDDYAIGWFRQAPGKEREGVSAIRSSGGSTYYADSVKGRFTISSDNSKNTVYLQMNSLRPEDTAVYYCAAVPAGRLRFGEQWYPLYEYDAWGQGTLVTVSS .
> 7730
